test system: AR mRNA; assay: Dose-dependent antisense inhibition of human AR in HuVEC cells (electroporation, qRT-PCR RTS3559, IC50); format: cell-based; conditions: Table 36; 46.9 nM, HuVEC, electroporation, approximately 16 hours
Oligonucleotides are written 5' to 3', each unit as a sugar letter and its base; * is a phosphorothioate linkage, no mark a phosphodiester; rarer units and linkages stand in square brackets, end groups in braces. Plain capitals give the bases only. k = constrained ethyl (cEt); [5mC] = 5-methylcytosine; d = 2'-deoxy (DNA)
measure.name: percent inhibition of AR, 46.9 nM (%)
// units = %; emit number, no label

substance	measure.name	recorded.number
549372 (kA*kA*kG*dT*dT*dG*dT*dA*dG*dT*dA*dG*dT*k[5mC]*kG*k[5mC]) [compound 549372]	percent inhibition of AR, 46.9 nM	2

In: Record request: percent inhibition of AR, 46.9 nM value, item 584168 (k[5mC]*kT*kG*dA*dT*dT*dA*dG*d[5mC]*dT*dA*dT*dG*kA*k[5mC]*k[5mC]; antisense) [compound 584168]
Out: 5

In: Record request: percent inhibition of AR, 46.9 nM value, item 584158 (kG*kG*kT*dT*dA*dA*d[5mC]*dT*dT*dT*d[5mC]*dT*d[5mC]*kT*kG*kA; antisense) [compound 584158]
Out: 14

In: Record request: percent inhibition of AR, 46.9 nM value, item 584245 (kA*kG*kG*dT*dT*dA*dG*dG*dG*dA*dG*dT*dA*kG*kG*k[5mC]; antisense) [compound 584245]
Out: 4

In: Record request: percent inhibition of AR, 46.9 nM value, item 584274 (kG*kT*kT*dA*dT*d[5mC]*dT*dT*dA*d[5mC]*dT*d[5mC]*dT*k[5mC]*k[5mC]*k[5mC]; antisense) [compound 584274]
Out: 17

In: Record request: percent inhibition of AR, 46.9 nM value, item 584157 (kT*kT*kG*dA*dT*dG*dG*dA*dA*dT*dG*d[5mC]*dT*kG*kA*kT; antisense) [compound 584157]
Out: 6

The values you see were collected from patent USRE48461E1.
